pKi: −log10 of the molar value.
Data export: pKi values recorded with UniProt Q07817.
Sequence (Q07817 whole entry): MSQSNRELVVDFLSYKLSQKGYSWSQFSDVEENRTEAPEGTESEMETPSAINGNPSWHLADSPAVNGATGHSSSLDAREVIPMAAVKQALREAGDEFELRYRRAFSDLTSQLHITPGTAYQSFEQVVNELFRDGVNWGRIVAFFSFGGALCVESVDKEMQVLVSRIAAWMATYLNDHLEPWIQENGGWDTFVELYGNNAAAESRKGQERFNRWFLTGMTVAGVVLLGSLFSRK
measured.metric: pKi

INSERT INTO measurements (compound, relation_operator, measured_value) VALUES
  ('O=C(Nc1nc2ccccc2s1)c1cccc2c1CN(c1ccc(-c3cnn(Cc4ccccc4[N+](=O)[O-])c3)c(C(=O)O)n1)CC2', '=', 7.85),
  ('COCCOc1ccccc1Cn1ncc(-c2ccc(N3CCc4cccc(C(=O)Nc5nc6ccccc6s5)c4C3)nc2C(=O)O)c1C', '=', 9.30),
  ('Cc1c(-c2ccc(N3CCc4cccc(C(=O)Nc5nc6ccccc6s5)c4C3)nc2C(=O)O)ccnc1OC1CCCCC1', '>', 10.00),
  ('CN(C)Cc1cccc(Cn2cc(-c3ccc(N4CCc5cccc(C(=O)Nc6nc7ccccc7s6)c5C4)nc3C(=O)O)cn2)c1', '=', 6.55),
  ('Cc1c(-c2ccc(N3CCc4cccc(C(=O)Nc5nc6ccccc6s5)c4C3)nc2C(=O)O)cnn1CC1(OCCCN2CCOCC2)CCCCCC1', '>', 10.00),
  ('O=C(Nc1nc2ccccc2s1)c1cccc2c1CN(c1ccc(-c3cnn(Cc4ccccc4OCc4ccccc4)c3)c(C(=O)O)n1)CC2', '=', 7.74),
  ('N#Cc1c(OC2CCCCC2)cccc1-c1ccc(N2CCc3cccc(C(=O)Nc4nc5ccccc5s4)c3C2)nc1C(=O)O', '>', 10.00),
  ('O=C(Nc1nc2ccccc2s1)c1cccc2c1CN(c1ccc(-c3cnn(CC4CCCCC4)c3)c(C(=O)O)n1)CC2', '=', 8.70),
  ('COCCOC1(Cn2ncc(-c3ccc(N4CCc5cccc(C(=O)Nc6nc7ccccc7s6)c5C4)nc3C(=O)O)c2C)CCCCC1', '=', 9.40),
  ('Cc1c(-c2ccc(N3CCc4cccc(C(=O)Nc5nc6ccccc6s5)c4C3)nc2C(=O)O)cnn1CC1CCCOC1 (centres unmarked)', '=', 8.52),
  ('Cc1c(-c2ccc(N3CCc4cccc(C(=O)Nc5nc6ccccc6s5)c4C3)nc2C(=O)O)cnn1CC1CCCC1', '=', 8.70),
  ('COc1cccc(Cn2cc(-c3ccc(N4CCc5cccc(C(=O)Nc6nc7ccccc7s6)c5C4)nc3C(=O)O)cn2)c1', '=', 7.92),
  ('O=C(Nc1nc2ccccc2s1)c1cccc2c1CN(c1ccc(-c3cnn(Cc4ccc(O)cc4)c3)c(C(=O)O)n1)CC2', '=', 6.94),
  ('Cc1cc(OCC2CCCCC2)ccc1-c1ccc(N2CCc3cccc(C(=O)Nc4nc5ccccc5s4)c3C2)nc1C(=O)O', '=', 8.30),
  ('Cc1nn(Cc2ccccc2)cc1-c1ccc(N2CCc3cccc(C(=O)Nc4nc5ccccc5s4)c3C2)nc1C(=O)O', '=', 7.55),
  ('Cc1c(-c2ccc(N3CCc4cccc(C(=O)Nc5nc6ccccc6s5)c4C3)nc2C(=O)O)ccnc1N1CCCCC1', '=', 9.15),
  ('CN(C)c1ccccc1Cn1cc(-c2ccc(N3CCc4cccc(C(=O)Nc5nc6ccccc6s5)c4C3)nc2C(=O)O)cn1', '=', 8.40),
  ('CN(C)CCCOc1ccccc1Cn1cc(-c2ccc(N3CCc4cccc(C(=O)Nc5nc6ccccc6s5)c4C3)nc2C(=O)O)cn1', '=', 7.80),
  ('O=C(Nc1nc2ccccc2s1)c1cccc2c1CN(c1ccc(-c3cnn(Cc4cccc(-c5ccccc5)c4)c3)c(C(=O)O)n1)CC2', '=', 6.76),
  ('O=C(Nc1nc2ccccc2s1)c1cccc2c1CN(c1ccc(-c3ccc4c(c3)CCN(Cc3ccccc3)C4)c(C(=O)O)n1)CC2', '=', 9.05),
  ('Cc1c(-c2ccc(N3CCc4cccc(C(=O)Nc5nc6ccccc6s5)c4C3)nc2C(=O)O)cnn1CC1(OCCS(C)(=O)=O)CCCC(C)(C)C1 (centres unmarked)', '>', 10.00),
  ('O=C(Nc1nc2ccccc2s1)c1cccc2c1CN(c1ccc(-c3ccnc(OC4CCCCC4)c3)c(C(=O)O)n1)CC2', '=', 9.40),
  ('N#Cc1c(-c2ccc(N3CCc4cccc(C(=O)Nc5nc6ccccc6s5)c4C3)nc2C(=O)O)cccc1N1CCCC1C12CC3CC(CC(C3)C1)C2 (centres unmarked)', '=', 9.70),
  ('O=C(Nc1nc2ccccc2s1)c1cccc2c1CN(c1ccc(-c3cnn(C(CCN4CCOCC4)c4ccccc4)c3)c(C(=O)O)n1)CC2 (centres unmarked)', '=', 8.00),
  ('O=C(Nc1nc2ccccc2s1)c1cccc2c1CN(c1ccc(-c3cn(Cc4ccccc4)nn3)c(C(=O)O)n1)CC2', '=', 6.93),
  ('CC(C)(C)Cn1cc(-c2ccc(N3CCc4cccc(C(=O)Nc5nc6ccccc6s5)c4C3)nc2C(=O)O)cn1', '=', 6.37);
